All figures here come from ChEMBL document CHEMBL3414532.

biological target: Human immunodeficiency virus type 1 reverse transcriptase (Human immunodeficiency virus 1); assay: Inhibition of HIV1 recombinant reverse transcriptase associated catalytically active RNase H domain assessed as reduction in RNA 5' end directed cleavage using HTS-3 RNA/DNA duplex substrate by fluorescence assay
Rule: IC50 below 1000 nM gives YES, anything at or above gives NO.

smilesRepr	assignedClass
O=C1Cc2cc(Cc3ccc(-c4cccs4)cc3)ccc2C(=O)N1O	NO

Now consider a different compound.
Answer whether the compound "N#Cc1ccc(-c2ccc(Cc3ccc4c(c3)CC(=O)N(O)C4=O)cc2)cc1" has IC50 strictly less than 1000 nM
YES

###

biological target: Human immunodeficiency virus type 1 reverse transcriptase (Human immunodeficiency virus 1, UniProt Q72547, Y181C); experiment: Inhibition of HIV1 reverse transcriptase Y181C mutant associated RNase H domain activity assessed as reduction in reduction in DNA 3' end directed cleavage using HTS-2 RNA/DNA duplex substrate by fluorescence assay
valueKind: IC50
Lab note: write values as number then unit, every time.

# IC50 (compound: "NS(=O)(=O)c1ccc(-c2ccc(Cc3ccc4c(c3)CC(=O)N(O)C4=O)cc2)cc1" ) is 300 nM
